Below: a set of entries, each annotated with reported recombinant UMI read abundance (log10).
Assay: recombinant UMI read abundance after kanamycin selection (control-corrected) (log10(CPM+1)); higher = more efficient recombination; extreme values may be limits of the assay; sequences stand for … in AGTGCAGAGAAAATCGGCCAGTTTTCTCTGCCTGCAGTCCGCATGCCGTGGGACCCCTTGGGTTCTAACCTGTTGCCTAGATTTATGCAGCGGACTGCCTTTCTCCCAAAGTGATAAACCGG…AGGTTGGTTTCACT; site = the 11-nt donor;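 further: IS621 bridge recombinase in Escherichia coli cells against a fixed T5 target plasmid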
measuredAttribute: recombinant UMI read abundance (log10)

[
  {
    "sequenceCode": "CCCTCCTCATGGACCGGTTTTCCCGGTAATCCGTATTTGGG (site CCCTCCTCTCC)",
    "measuredAttribute": "recombinant UMI read abundance (log10)",
    "measuredValue": 0.487
  },
  {
    "sequenceCode": "CCACACACATGGACCGGTTTTCCCGGTAATCCGTATTTGTA (site CCCCACACTTA)",
    "measuredAttribute": "recombinant UMI read abundance (log10)",
    "measuredValue": 0.0104
  },
  {
    "sequenceCode": "AATGTCTCATGGACCGGTTTTCCCGGTAATCCGTATTTGAC (site AATGTGTCTGT)",
    "measuredAttribute": "recombinant UMI read abundance (log10)",
    "measuredValue": 0
  },
  {
    "sequenceCode": "GCACCATCATGGACCGGTTTTCCCGGTAATCCGTATTTGTA (site GCACCATCTTA)",
    "measuredAttribute": "recombinant UMI read abundance (log10)",
    "measuredValue": 2.47
  },
  {
    "sequenceCode": "ATGTAGGCATGGACCGGTTTTCCCGGTAATCCGTATTTGGC (site ATGGAGGCTGC)",
    "measuredAttribute": "recombinant UMI read abundance (log10)",
    "measuredValue": 0
  },
  {
    "sequenceCode": "AACAGTGCATGGACCGGTTTTCCCGGTAATCCGTATTTGTC (site AACAGTGCTGA)",
    "measuredAttribute": "recombinant UMI read abundance (log10)",
    "measuredValue": 2.39
  },
  {
    "sequenceCode": "TTTCTGCCATGGACCGGTTTTCCCGGTAATCCGTATTTGAA (site TTTCTGCCTTT)",
    "measuredAttribute": "recombinant UMI read abundance (log10)",
    "measuredValue": 0.00894
  },
  {
    "sequenceCode": "TTACATTCATGGACCGGTTTTCCCGGTAATCCGTATTTGAC (site TTACATTCTGT)",
    "measuredAttribute": "recombinant UMI read abundance (log10)",
    "measuredValue": 1.68
  },
  {
    "sequenceCode": "GGCAATTCATGGACCGGTTTTCCCGGTAATCCGTATTTGAA (site GGCAATTCTTT)",
    "measuredAttribute": "recombinant UMI read abundance (log10)",
    "measuredValue": 0.996
  },
  {
    "sequenceCode": "CACTCCTCATGGACCGGTTTTCCCGGTAATCCGTATTTGCT (site CACTCCTCTCG)",
    "measuredAttribute": "recombinant UMI read abundance (log10)",
    "measuredValue": 0.583
  },
  {
    "sequenceCode": "TATGCGGCATGGACCGGTTTTCCCGGTAATCCGTATTTGCT (site TGTGCGGCTAG)",
    "measuredAttribute": "recombinant UMI read abundance (log10)",
    "measuredValue": 0.029
  },
  {
    "sequenceCode": "ATGTAGGCATGGACCGGTTTTCCCGGTAATCCGTATTTGGG (site ATGTAGGCTGC)",
    "measuredAttribute": "recombinant UMI read abundance (log10)",
    "measuredValue": 0
  },
  {
    "sequenceCode": "GCGTGACCATGGACCGGTTTTCCCGGTAATCCGTATTTGCA (site GCGTGACCTTG)",
    "measuredAttribute": "recombinant UMI read abundance (log10)",
    "measuredValue": 0.00644
  },
  {
    "sequenceCode": "CCCTTCTCATGGACCGGTTTTCCCGGTAATCCGTATTTGGT (site CCCTTCTCTAC)",
    "measuredAttribute": "recombinant UMI read abundance (log10)",
    "measuredValue": 1.32
  }
]
